molecular target: GTPase KRas (Homo sapiens, UniProt P01116, G12D); experiment: Inhibition of GDP-bound biotinylated-KRAS G12D mutant (1 to 169 residues) (unknown origin) assessed as suppression of SOS1-mediated nucleotide exchange by measuring reduction in KRAS G12D mutant-RAF RBD complex formation preincubated for 60 mins followed by SOS1 addition and further incubated for 60 mins and subsequent addition of KRAS G12D mutant-RAF RBD mixture measured after 30 to 60 mins by FRET assay
For each record, check the reported IC50: if it is below 2 nM write Met, else write Not met.

Some entries whose results are on file:
Nc1nc2c(-c3c(Cl)cc4c(N5C[C@H]6CC[C@@H](C5)N6)nc(OC[C@@]56CCCN5C[C@H](F)C6)nc4c3F)ccc(F)c2s1
Not met
Nc1cc2ccccc2c(-c2c(Cl)cc3c(N4C[C@H]5CC[C@@H](C4)N5)nc(OC[C@@]45CCCN4C[C@H](F)C5)nc3c2F)n1
Not met
Cc1cc(N)nc(-c2c(Cl)cc3c(N4C[C@H]5CC[C@@H](C4)N5)nc(OC[C@@H]4CCCN4C)nc3c2F)c1C(F)(F)F
Not met
N#Cc1c(N)sc2c(F)ccc(-c3c(Cl)cc4c(N5C[C@H]6CC[C@@H](C5)N6)nc(OC[C@@]56CCCN5C[C@H](F)C6)nc4c3F)c12
Met

We now examine a further molecule.
stdin: Is IC50 strictly under 2 nM for the entry `Cc1cc(N)nc(-c2c(Cl)cc3c(N4C[C@H]5CC[C@@H](C4)N5)nc(OC[C@@]45CCCN4C[C@H](F)C5)nc3c2F)c1C(F)(F)F` ?
stdout: Not met

---

system: GTPase KRas (Homo sapiens), P01116 [G12D]; assay: Thermal stabilization of GDP-bound KRAS G12D mutant (1 to 169 residues) (unknown origin) assessed as melting temperature incubated for 1 hrs by differential scanning fluorimetry assay
Listing of recorded ΔTm by entry.
Answer with a number only, understood to be in °C.

stdin: Quote ΔTm reported for `CN1CCC[C@H]1COc1nc(N2C[C@H]3CC[C@@H](C2)N3)c2cc(Cl)c(-c3ccc(F)c4sc(N)c(C#N)c34)c(F)c2n1` please.
stdout: 17.1

---

biological target: GTPase KRas (Homo sapiens); experiment: Thermal stabilization of wild-type GDP-bound KRAS (1 to 169 residues) (unknown origin) assessed as melting temperature incubated for 1 hrs by differential scanning fluorimetry assay
Threshold rule: ΔTm greater than or equal to 7 °C is Fulfilled; below that, Not fulfilled.

Cc1cc(N)nc(-c2c(Cl)cc3c(N4C[C@H]5CC[C@@H](C4)N5)nc(OC[C@@H]4CCCN4C)nc3c2F)c1C(F)(F)F
Not fulfilled

stdin: Assess whether reported ΔTm for `CN1CCC[C@H]1COc1nc(N2C[C@H]3CC[C@@H](C2)N3)c2cc(Cl)c(-c3ccc(F)c4sc(N)c(C#N)c34)c(F)c2n1` sits at 7 °C or higher.
stdout: Fulfilled

stdin: Assess whether reported ΔTm for `N#Cc1c(N)sc2c(F)ccc(-c3c(Cl)cc4c(N5C[C@H]6CC[C@@H](C5)N6)nc(OC[C@@]56CCCN5C[C@H](F)C6)nc4c3F)c12` sits at 7 °C or higher.
stdout: Fulfilled

stdin: Assess whether reported ΔTm for `Cc1cc(N)nc(-c2c(Cl)cc3c(N4CCNC[C@@H]4C)nc(OC[C@@H]4CCCN4C)nc3c2F)c1C(F)(F)F` sits at 7 °C or higher.
stdout: Not fulfilled

stdin: Assess whether reported ΔTm for `Nc1cc2ccccc2c(-c2c(Cl)cc3c(N4C[C@H]5CC[C@@H](C4)N5)nc(OC[C@@]45CCCN4C[C@H](F)C5)nc3c2F)n1` sits at 7 °C or higher.
stdout: Not fulfilled

---

system: GTPase KRas (Homo sapiens), P01116 [G12D]; experiment: Thermal stabilization of GDP-bound KRAS G12D mutant (1 to 169 residues) (unknown origin) assessed as melting temperature incubated for 1 hrs by differential scanning fluorimetry assay
For each record, check the reported ΔTm: if it is below 10 °C write Satisfied, else write Not satisfied.

stdin: Is ΔTm strictly under 10 °C for the entry `Cc1cc(N)nc(-c2c(Cl)cc3c(N4C[C@H]5CC[C@@H](C4)N5)nc(OCC45CCCN4CCC5)nc3c2F)c1C(F)(F)F` ?
stdout: Not satisfied

stdin: Is ΔTm strictly under 10 °C for the entry `Nc1nc2c(-c3c(Cl)cc4c(N5C[C@H]6CC[C@@H](C5)N6)nc(OC[C@@]56CCCN5C[C@H](F)C6)nc4c3F)ccc(F)c2s1` ?
stdout: Not satisfied

stdin: Is ΔTm strictly under 10 °C for the entry `N#Cc1c(N)sc2c(F)ccc(-c3c(C(F)(F)F)cc4c(N5C[C@H]6CC[C@@H](C5)N6)nc(OC[C@@]56CCCN5C[C@H](F)C6)nc4c3F)c12` ?
stdout: Not satisfied

stdin: Is ΔTm strictly under 10 °C for the entry `N#Cc1c(N)sc2c(F)ccc(-c3c(Cl)cc4c(N5C[C@H]6CC[C@@H](C5)N6)ncnc4c3F)c12` ?
stdout: Satisfied

stdin: Is ΔTm strictly under 10 °C for the entry `N#Cc1c(N)sc2c(F)ccc(-c3cc4nc(OC[C@@]56CCCN5C[C@H](F)C6)nc(N5C[C@H]6CC[C@@H](C5)N6)c4cc3Cl)c12` ?
stdout: Not satisfied

stdin: Is ΔTm strictly under 10 °C for the entry `Cc1cc(N)nc(-c2c(Cl)cc3c(N4C[C@H]5CC[C@@H](C4)N5)nc(OC[C@@]45CCCN4C[C@H](F)C5)nc3c2F)c1C(F)(F)F` ?
stdout: Not satisfied

stdin: Is ΔTm strictly under 10 °C for the entry `Cc1cc(N)nc(-c2c(Cl)cc3c(N4CCNC[C@@H]4C)nc(OC[C@@H]4CCCN4C)nc3c2F)c1C(F)(F)F` ?
stdout: Satisfied

stdin: Is ΔTm strictly under 10 °C for the entry `Cc1cc(N)nc(-c2c(Cl)cc3c(N4C[C@H]5CC[C@@H](C4)N5)nc(OC[C@@H]4CCCN4C)nc3c2F)c1C(F)(F)F` ?
stdout: Satisfied

stdin: Is ΔTm strictly under 10 °C for the entry `N#Cc1c(N)sc2c(F)ccc(-c3c(Cl)cc4c(N5C[C@H]6CC[C@@H](C5)N6)nc(OCC5(CN6CC[C@@H](F)C6)CC5)nc4c3F)c12` ?
stdout: Not satisfied

---

Listing of recorded ΔTm by entry.
test system: GTPase KRas (Homo sapiens), P01116 [G12D]; assay: Thermal stabilization of GDP-bound KRAS G12D mutant (1 to 169 residues) (unknown origin) assessed as melting temperature incubated for 1 hrs by differential scanning fluorimetry assay
Answer with a number only, understood to be in °C.

These recorded examples may help you get a feel for the data.
N#Cc1c(N)sc2c(F)ccc(-c3c(Cl)cc4c(N5C[C@H]6CC[C@@H](C5)N6)nc(OC[C@@]56CCCN5C[C@H](F)C6)nc4c3F)c12
20.2
Nc1cc2ccccc2c(-c2c(Cl)cc3c(N4C[C@H]5CC[C@@H](C4)N5)nc(OC[C@@]45CCCN4C[C@H](F)C5)nc3c2F)n1
4.3

Next compound, ΔTm to be filled in.
stdin: # lookup: GTPase KRas (Homo sapiens), P01116 [G12D] ΔTm, key = `Nc1cc2cccc(F)c2c(-c2c(Cl)cc3c(N4C[C@H]5CC[C@@H](C4)N5)nc(OC[C@@]45CCCN4C[C@H](F)C5)nc3c2F)n1`
stdout: 7.4
